- Tested on: CAKI-1 renal
- protocol_text: NCI tumour cell line growth inhibition, 48 h
TGI reference
experimental_readout: TGI

[[record]]
molecule = "COC(=O)/C=C/C=C(c1ccccc1)c1ccccc1"
test_result = "10.4 µM"

[[record]]
molecule = "C=CCc1c2c(c(OC)c3ccoc13)C(=O)/C(=C/c1ccccc1OC)O2"
test_result = "35.2 µM"

[[record]]
molecule = "COc1cc(C2c3cc4c(cc3OC(N3CCCC3)C2C)OCO4)cc(OC)c1OC (stereo not given)"
test_result = "12 µM"

[[record]]
molecule = "O=c1c2ncn(C3CC(O)C(CO)O3)c2nnn1Cc1ccccc1[N+](=O)[O-] (stereo not given)"
test_result = "> 100 µM"

[[record]]
molecule = "Cc1cn2c(/C=C3/C(=O)Nc4cccc(Cl)c43)c(Cl)nc2s1"
test_result = "> 100 µM"

[[record]]
molecule = "Cc1occc1C(=S)Nc1ccc(Cl)c(COC(C)(C)C)c1"
test_result = "38.9 µM"

[[record]]
molecule = "CCCCCCCCCC[C@H](O)[C@H]1CC[C@H]([C@H]2CC[C@H]([C@H](O)CC[C@H](O)CCCCCCC[C@@H](O)CC3=C[C@H](C)OC3=O)O2)O1"
test_result = "> 100 µM"

[[record]]
molecule = "CC(C)=C[C@@H]1C[C@H](n2cc(C)c(=O)[nH]c2=O)ON1CCO"
test_result = "> 100 µM"

[[record]]
molecule = "NC(CSCc1ccccc1)C(=O)O (stereo not given)"
test_result = "> 100 µM"

[[record]]
molecule = "CC(C)NC[C@@H](C(=O)N1CCN(c2ncnc3c2[C@H](C)C[C@H]3O)CC1)c1ccc(Cl)cc1"
test_result = "> 100 µM"

[[record]]
molecule = "Cc1ccccc1OC(C)C(=O)NN1C(=O)CC(=O)N(c2ccc(Cl)cc2)C1=S (stereo not given)"
test_result = "> 100 µM"

[[record]]
molecule = "Cc1sc(C(=O)Nc2cc(C(=O)NCCCN(C)C)n(C)c2)cc1NC(=O)CCCN1C(=O)c2cccc3cccc(c23)C1=O"
test_result = "> 100 µM"

[[record]]
molecule = "CN(C)c1nc(=NCc2ccncc2)ss1"
test_result = "> 56.3 µM"

[[record]]
molecule = "Cc1cccc(NC(=O)CC(=O)N2N=C(N(CCC#N)c3ccc(Cl)cc3)CC2c2ccccc2)c1 (stereo not given)"
test_result = "> 100 µM"

[[record]]
molecule = "COc1ccc2c(CCCC(c3ccccc3)c3ccccc3)c3[n+](cc2c1OC)CCc1cc2c(cc1-3)OCO2"
test_result = "6.51 µM"

[[record]]
molecule = "COC(=O)[C@H](Cc1cn(C)cn1)NC(=O)[C@H](Cc1c[nH]c2ccccc12)NC(=O)Nc1cc(C(F)(F)F)cc(C(F)(F)F)c1"
test_result = "> 10 µM"

[[record]]
molecule = "Oc1ccc(-c2nnc3sc(-c4ccc(F)cc4)nn23)cc1"
test_result = "> 100 µM"

[[record]]
molecule = "Cc1cc(C)c2c(=O)n(CN3CC4Nc5ccccc5C4C3)sc2n1 (stereo not given)"
test_result = "57.6 µM"

[[record]]
molecule = "O=C(O)C1CC(c2ccc(F)cc2)=Nc2ccc(F)cc2S1 (stereo not given)"
test_result = "> 100 µM"

[[record]]
molecule = "CC(=O)N/N=C1/NN(C(C)=O)C2(S1)C(=O)Nc1ccc(Br)cc12 (stereo not given)"
test_result = "> 100 µM"

